EXPERIMENTAL DETAILS: intrinsic clearance in human liver microsomes
Assay type: in vitro ADME
COND: human, liver microsomes, experiment 2, read-out: Clint, experiment 2
Form field: microsomal CLint (one value per entry).
# unit: µL/min/mg | format: bare number

>>> recorded_measurement("O=C(c1cc(Cc2n[nH]c(=O)c3ccccc23)ccc1F)N1CCN(C(=O)C2CC2)CC1 [compound 1, olaparib, reference compound]")
34

Now look at this one.
Annotate the compound O=C(c1ccc(CF)cc1)N1CCN(C(=O)c2cc(Cc3n[nH]c(=O)c4ccccc34)ccc2F)CC1 [compound 20] with its measured microsomal CLint. 90

----------
EXPERIMENTAL DETAILS: lipophilicity (log Poct) by C-18 reverse-phase HPLC
Assay type: physicochemical
COND: C-18 reverse-phase HPLC column
READOUT: chromatographic logP
Please give only the number in your answer, with no unit.

Here's what some known entries look like.
>>> recorded_measurement("O=C(Cc1ccc(F)cc1)N1CCN(C(=O)c2cc(Cc3n[nH]c(=O)c4ccccc34)ccc2F)CC1 [compound 11]")
2.67
>>> recorded_measurement("O=C(c1cc(Cc2n[nH]c(=O)c3ccccc23)ccc1F)N1CCN(Cc2ccc(F)cc2)CC1 [compound 13]")
3.14
>>> recorded_measurement("O=C(c1cc(Cc2n[nH]c(=O)c3ccccc23)ccc1F)N1CCN(C(=O)C2CC2)CC1 [compound 1, olaparib, reference compound]")
1.95
>>> recorded_measurement("O=C(c1ccc(CF)cc1)N1CCN(C(=O)c2cc(Cc3n[nH]c(=O)c4ccccc34)ccc2F)CC1 [compound 20]")
2.51
>>> recorded_measurement("Cc1cc(F)ccc1C(=O)N1CCN(C(=O)c2cc(Cc3n[nH]c(=O)c4ccccc34)ccc2F)CC1 [compound 10]")
2.66

Annotate the compound O=C(c1ccc(F)cc1)N1CCN(C(=O)c2cc(Cc3n[nH]c(=O)c4ccccc34)ccc2F)CC1 [compound 8] with its measured chromatographic logP. 2.51

Annotate the compound O=C(CCC(=O)N1CCN(C(=O)c2cc(Cc3n[nH]c(=O)c4ccccc34)ccc2F)CC1)c1ccc(F)cc1 [compound 12] with its measured chromatographic logP. 2.81

Annotate the compound O=C(c1ccccc1F)N1CCN(C(=O)c2cc(Cc3n[nH]c(=O)c4ccccc34)ccc2F)CC1 [compound 9] with its measured chromatographic logP. 2.46

----------
The following molecules each carry a recorded IC50 for PARP-1 (Homo sapiens).
# unit: nM | format: bare number

>>> recorded_measurement("O=C(c1ccc(CF)cc1)N1CCN(C(=O)c2cc(Cc3n[nH]c(=O)c4ccccc34)ccc2F)CC1")
2
>>> recorded_measurement("Cc1cc(F)ccc1C(=O)N1CCN(C(=O)c2cc(Cc3n[nH]c(=O)c4ccccc34)ccc2F)CC1")
2.9
>>> recorded_measurement("O=C(Cc1ccc(F)cc1)N1CCN(C(=O)c2cc(Cc3n[nH]c(=O)c4ccccc34)ccc2F)CC1")
1.3

Look up and report measured IC50 (PARP-1 (Homo sapiens)) for the following molecule: "O=C(c1ccccc1F)N1CCN(C(=O)c2cc(Cc3n[nH]c(=O)c4ccccc34)ccc2F)CC1" 3.6

----------
TARGET: human serum albumin (Homo sapiens, UniProt P02768)
Sequence (P02768 25-609): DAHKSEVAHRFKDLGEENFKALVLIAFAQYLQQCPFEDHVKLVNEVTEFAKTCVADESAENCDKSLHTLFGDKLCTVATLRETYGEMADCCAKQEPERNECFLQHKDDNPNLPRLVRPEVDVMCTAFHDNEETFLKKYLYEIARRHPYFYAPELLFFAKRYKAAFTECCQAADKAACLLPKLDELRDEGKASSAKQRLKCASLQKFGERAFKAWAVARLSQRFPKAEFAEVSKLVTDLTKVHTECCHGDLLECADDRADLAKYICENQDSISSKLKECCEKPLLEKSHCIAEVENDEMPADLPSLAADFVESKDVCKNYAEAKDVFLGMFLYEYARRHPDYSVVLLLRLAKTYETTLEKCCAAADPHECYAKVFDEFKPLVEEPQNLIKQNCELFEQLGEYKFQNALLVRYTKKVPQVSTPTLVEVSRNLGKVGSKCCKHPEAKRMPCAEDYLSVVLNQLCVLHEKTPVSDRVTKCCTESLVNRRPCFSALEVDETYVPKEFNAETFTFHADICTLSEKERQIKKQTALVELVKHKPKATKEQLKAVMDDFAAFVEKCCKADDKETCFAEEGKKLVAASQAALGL
EXPERIMENTAL DETAILS: percentage plasma protein binding by human serum albumin coated HPLC column
Assay type: in vitro ADME
COND: human, read-out: %PPB (converted)
Form field: fraction unbound (one value per entry).
Please give only the number in your answer, with no unit.

Here's what some known entries look like.
>>> recorded_measurement("O=C(c1ccc(CF)cc1)N1CCN(C(=O)c2cc(Cc3n[nH]c(=O)c4ccccc34)ccc2F)CC1")
0.107
>>> recorded_measurement("O=C(c1cc(Cc2n[nH]c(=O)c3ccccc23)ccc1F)N1CCN(Cc2ccc(F)cc2)CC1")
0.053

Annotate the compound "O=C(CCC(=O)N1CCN(C(=O)c2cc(Cc3n[nH]c(=O)c4ccccc34)ccc2F)CC1)c1ccc(F)cc1" with its measured fraction unbound. 0.094

Annotate the compound "O=C(Cc1ccc(F)cc1)N1CCN(C(=O)c2cc(Cc3n[nH]c(=O)c4ccccc34)ccc2F)CC1" with its measured fraction unbound. 0.101

Annotate the compound "O=C(c1ccccc1F)N1CCN(C(=O)c2cc(Cc3n[nH]c(=O)c4ccccc34)ccc2F)CC1" with its measured fraction unbound. 0.136

Annotate the compound "O=C(c1ccc(F)cc1)N1CCN(C(=O)c2cc(Cc3n[nH]c(=O)c4ccccc34)ccc2F)CC1" with its measured fraction unbound. 0.141

Annotate the compound "Cc1cc(F)ccc1C(=O)N1CCN(C(=O)c2cc(Cc3n[nH]c(=O)c4ccccc34)ccc2F)CC1" with its measured fraction unbound. 0.139

----------
Form field: microsomal CLint (one value per entry).
EXPERIMENTAL DETAILS: intrinsic clearance in human liver microsomes
Type: in vitro ADME
COND: human, liver microsomes, experiment 1, read-out: Clint, experiment 1
# unit: µL/min/mg | format: bare number

>>> recorded_measurement("O=C(c1cc(Cc2n[nH]c(=O)c3ccccc23)ccc1F)N1CCN(C(=O)C2CC2)CC1 [compound 1, olaparib, reference compound]")
23

Now look at this one.
Annotate the compound O=C(c1ccc(CF)cc1)N1CCN(C(=O)c2cc(Cc3n[nH]c(=O)c4ccccc34)ccc2F)CC1 [compound 20] with its measured microsomal CLint. 74
